Hey, just so you know, these numbers are from paper PMC7238409.

# System: nNHDF cells
# Assay Text: Annexin V/Propidiumiodide apoptosis/necrosis assay, flow cytometry
# Assay type: cell-based, human
Property Label: quadrant number lower left (viable cells), PI / Annexin V plot
No unit in the answer, please; the number alone is enough.

What measured quadrant number lower left (viable cells), PI / Annexin V plot is associated with O=C1C=C(O)C(=O)c2ccccc21 [HNQ, 2-hydroxy-1,4-naphtoquinone] on nNHDF cells?
89.5

What measured quadrant number lower left (viable cells), PI / Annexin V plot is associated with CCOC(=O)c1ccc(O)cc1 on nNHDF cells?
90.0

What measured quadrant number lower left (viable cells), PI / Annexin V plot is associated with CCCCOC(=O)c1ccc(O)cc1 on nNHDF cells?
92.9

What measured quadrant number lower left (viable cells), PI / Annexin V plot is associated with CCCOC(=O)c1ccc(O)cc1 on nNHDF cells?
91.2
